Source listed as patent US6737383B1.

Nutsedge plant response rating for assorted compounds
# Test system: purple nutsedge
# ASSAY_PROTOCOL: Test B pre/postemergence purple nutsedge
# Type: in vivo, Cyperus rotundus
# PARTICULARS: Rate 500 g/ha, Postemergence; scale 0 to 10, 0 no effect, 10 complete control

{"COMPOUND": "CC(C)N(C(=O)n1oc(=O)n(CC(=O)OC(C)(C)C)c1=O)c1ccc(F)cc1 [Compound 265]", "Nutsedge plant response rating": 0}
{"COMPOUND": "CCCn1c(=O)on(C(=O)N(c2ccc(Cl)cc2)C(C)C)c1=O [Compound 119]", "Nutsedge plant response rating": 0}
{"COMPOUND": "CCCCCC#CCn1c(=O)on(C(=O)N(c2ccc(F)cc2)C(C)C)c1=O [Compound 254]", "Nutsedge plant response rating": 0}
{"COMPOUND": "CC(C)N(C(=O)n1oc(=O)n(CC2CC2)c1=O)c1ccc(F)cc1 [Compound 251]", "Nutsedge plant response rating": 0}
{"COMPOUND": "Cc1ccccc1-n1c(=O)on(C(=O)N(c2ccc(C#N)cc2)C(C)C)c1=O [Compound 51]", "Nutsedge plant response rating": 0}

----------
# Tested on: giant foxtail
# ASSAY_PROTOCOL: Test B pre/postemergence giant foxtail
# Format: in vivo, Setaria faberii
# PARTICULARS: Rate 125 g/ha; Postemergence; scale 0 to 10, 0 no effect, 10 complete control
Giant foxtail plant response rating for assorted molecules
MEASURED_METRIC: Giant foxtail plant response rating

{"SUBSTANCE_SMILES": "CCN(C(=O)n1oc(=O)n(-c2c(C)cc(C)cc2C)c1=O)C1CCCCC1", "TESTED_TARGET": "giant foxtail", "MEASURED_RESULT": 0}
{"SUBSTANCE_SMILES": "CC(C)N(C(=O)n1oc(=O)n(-c2cc(Cl)cc(Cl)c2)c1=O)C1=CCOCC1", "TESTED_TARGET": "giant foxtail", "MEASURED_RESULT": 0}
{"SUBSTANCE_SMILES": "Cc1ccccc1-n1c(=O)on(C(=O)N(c2ccc(F)cc2)C(C)C)c1=O", "TESTED_TARGET": "giant foxtail", "MEASURED_RESULT": 5}
{"SUBSTANCE_SMILES": "CCN(C(=O)n1oc(=O)n(-c2ccc(C)cc2C)c1=O)C1CCCCC1", "TESTED_TARGET": "giant foxtail", "MEASURED_RESULT": 0}
{"SUBSTANCE_SMILES": "CC(C)Oc1cc(-n2c(=O)on(C(=O)N(c3ccc(F)cc3)C(C)C)c2=O)c(Cl)cc1Cl", "TESTED_TARGET": "giant foxtail", "MEASURED_RESULT": 0}
{"SUBSTANCE_SMILES": "COc1ccc(-n2c(=O)on(C(=O)N(c3ccc(F)cc3)C(C)C)c2=O)c(C)c1", "TESTED_TARGET": "giant foxtail", "MEASURED_RESULT": 0}

----------
Plant response rating, Blackgrass for assorted compounds
# Tested on: blackgrass
# ASSAY_PROTOCOL: Test B pre/postemergence blackgrass
# Format: in vivo, Alopecurus myosuroides
# PARTICULARS: Preemergence, Rate 62 g/ha; scale of 0 to 10 where 0 is no effect and 10 is complete control
MEASURED_METRIC: Plant response rating, Blackgrass

{"COMPOUND": "CCCCCn1c(=O)on(C(=O)N(c2ccc(Cl)cc2)C(C)C)c1=O [Compound 528]", "MEASURED_RESULT": 0}
{"COMPOUND": "CC(C)N(C(=O)n1oc(=O)n(CCC2OCCO2)c1=O)c1ccc(Cl)cc1 [Compound 531]", "MEASURED_RESULT": 2}
{"COMPOUND": "CC(C)C(=O)Cn1c(=O)on(C(=O)N(c2ccc(Cl)cc2)C(C)C)c1=O [Compound 487]", "MEASURED_RESULT": 2}

----------
Cocklebur plant response rating for assorted compounds
# System: cocklebur
# ASSAY_PROTOCOL: Test B pre/postemergence cocklebur
# Type: in vivo, Xanthium strumarium
# PARTICULARS: Rate 125 g/ha, Postemergence; scale 0 to 10, 0 is no effect, 10 is complete control

{"COMPOUND": "CC(C)N(C(=O)n1oc(=O)n(C2CCCCCC2)c1=O)C1=CCCCC1 [Compound 428]", "Cocklebur plant response rating": 0}
{"COMPOUND": "COC(CCl)n1c(=O)on(C(=O)N(c2ccc(Cl)cc2)C(C)C)c1=O (stereo not drawn) [Compound 458]", "Cocklebur plant response rating": 0}
{"COMPOUND": "CC(C)N(C(=O)n1oc(=O)n(CCC[Si](C)(C)C)c1=O)c1ccc(F)cc1 [Compound 461]", "Cocklebur plant response rating": 0}
{"COMPOUND": "CC(C)N(C(=O)n1oc(=O)n(CNC(=O)c2ccccc2)c1=O)c1ccc(F)cc1 [Compound 445]", "Cocklebur plant response rating": 2}
{"COMPOUND": "COCC(OC)n1c(=O)on(C(=O)N(c2ccc(F)cc2)C(C)C)c1=O (stereo not drawn) [Compound 446]", "Cocklebur plant response rating": 0}
{"COMPOUND": "COC(=O)C(C)n1c(=O)on(C(=O)N(c2ccc(F)cc2F)C(C)C)c1=O (stereo not drawn) [Compound 463]", "Cocklebur plant response rating": 0}

----------
Crabgrass plant response rating for assorted compounds
# Tested on: crabgrass
# ASSAY_PROTOCOL: Test B pre/postemergence crabgrass
# Assay type: in vivo, Digitaria sanguinalis
# PARTICULARS: Rate 125 g/ha, Postemergence; scale 0 to 10, 0 is no effect, 10 is complete control

{"COMPOUND": "COC(=O)C(C)n1c(=O)on(C(=O)N(c2ccc(F)cc2F)C(C)C)c1=O (centres unmarked)", "TESTED_TARGET": "crabgrass", "Crabgrass plant response rating": 0}
{"COMPOUND": "CC(C)N(C(=O)n1oc(=O)n(CCC[Si](C)(C)C)c1=O)c1ccc(F)cc1", "TESTED_TARGET": "crabgrass", "Crabgrass plant response rating": 0}
{"COMPOUND": "CC(C)N(C(=O)n1oc(=O)n(CNC(=O)c2ccccc2)c1=O)c1ccc(F)cc1", "TESTED_TARGET": "crabgrass", "Crabgrass plant response rating": 1}
{"COMPOUND": "CC(C)N(C(=O)n1oc(=O)n(CCCl)c1=O)c1ccc(Cl)cc1", "TESTED_TARGET": "crabgrass", "Crabgrass plant response rating": 5}
{"COMPOUND": "CC(C)N(C(=O)n1oc(=O)n(C2CCCCCC2)c1=O)C1=CCCCC1", "TESTED_TARGET": "crabgrass", "Crabgrass plant response rating": 0}

----------
Rice plant response rating for assorted molecules
# Test system: rice
# ASSAY_PROTOCOL: Test B flood test rice
# Format: in vivo, Oryza sativa
# PARTICULARS: Rate 250 g/ha; Pre-emergence (flood test species); scale 0 to 10, 0 is no effect, 10 is complete control

{"MOLECULE": "CC(C)N(C(=O)n1oc(=O)n(CC2CC2)c1=O)c1ccccc1", "TESTED_TARGET": "rice", "Rice plant response rating": 0}
{"MOLECULE": "COCC(OC)n1c(=O)on(C(=O)N(c2ccc(F)cc2)C(C)C)c1=O (centres unmarked)", "TESTED_TARGET": "rice", "Rice plant response rating": 0}
{"MOLECULE": "CC(C)N(C(=O)n1oc(=O)n(CCC(=O)N(C)C)c1=O)c1ccccc1", "TESTED_TARGET": "rice", "Rice plant response rating": 0}
{"MOLECULE": "CC(C)N(C(=O)n1oc(=O)n(CC(C)[N+](=O)[O-])c1=O)c1ccccc1 (centres unmarked)", "TESTED_TARGET": "rice", "Rice plant response rating": 0}
{"MOLECULE": "CCc1nc(C)c(Cn2c(=O)on(C(=O)N(c3ccc(Cl)cc3)C(C)C)c2=O)s1", "TESTED_TARGET": "rice", "Rice plant response rating": 0}
{"MOLECULE": "COC(OC)C(C)n1c(=O)on(C(=O)N(c2ccc(F)cc2F)C(C)C)c1=O (centres unmarked)", "TESTED_TARGET": "rice", "Rice plant response rating": 0}
{"MOLECULE": "CC(C)N(C(=O)n1oc(=O)n(CC2=NOCCC2)c1=O)c1ccc(F)cc1", "TESTED_TARGET": "rice", "Rice plant response rating": 0}
{"MOLECULE": "CC(C)N(C(=O)n1oc(=O)n(CC(=O)C2CCC2)c1=O)c1ccccc1", "TESTED_TARGET": "rice", "Rice plant response rating": 0}

----------
# Test system: crabgrass
# ASSAY_PROTOCOL: Test B pre/postemergence crabgrass
# Format: in vivo, Digitaria sanguinalis
# PARTICULARS: Rate 62 g/ha, Postemergence; scale of 0 to 10 where 0 is no effect and 10 is complete control
Crabgrass plant response rating for assorted compounds

{"COMPOUND": "CCCCn1c(=O)on(C(=O)N(c2ccc(F)cc2)C(C)C)c1=O", "Crabgrass plant response rating": 2}
{"COMPOUND": "CC(C)N(C(=O)n1oc(=O)n(CC2(C)COC2)c1=O)c1ccc(F)cc1", "Crabgrass plant response rating": 0}
{"COMPOUND": "CCn1c(=O)on(C(=O)N(c2ccc(Cl)cc2)C(C)C)c1=O", "Crabgrass plant response rating": 4}
{"COMPOUND": "CC(C)N(C(=O)n1oc(=O)n(C2CCCCCC2)c1=O)c1ccc(Cl)cc1", "Crabgrass plant response rating": 0}
{"COMPOUND": "CC(C)N(C(=O)n1oc(=O)n(Cc2ccco2)c1=O)c1ccc(F)cc1", "Crabgrass plant response rating": 0}
{"COMPOUND": "COc1nc(OC)nc(N(C(=O)n2oc(=O)n(C(C)C)c2=O)C(C)C)n1", "Crabgrass plant response rating": 0}
{"COMPOUND": "CC(C)N(C(=O)n1oc(=O)n(C(C)CCl)c1=O)c1ccc(F)cc1 (centres unmarked)", "Crabgrass plant response rating": 0}
{"COMPOUND": "CC(C)Cn1c(=O)on(C(=O)N(c2ccc(Cl)cc2)C(C)C)c1=O", "Crabgrass plant response rating": 0}
